Assignment: determine reported T/C 1 for the given compounds.
test: Diuretic activity at 40 mg/kg (screening dose-84.7 umol/kg) in […] in a one stage experiment; T/C = urine vol of treated rats / urine vol of control rats; type: functional

Reference set, count: 3
>>> result("COc1cccc(C(CN(C)C)c2nnc3n2-c2ccc(Cl)cc2C(c2ccccc2)=NC3)c1 (centres undefined)")
3.18
>>> result("COc1ccc(C(CN(C)C)c2nnc3n2-c2ccc(Cl)cc2C(c2ccccc2)=NC3)cc1 (centres undefined)")
2.77
>>> result("COc1ccccc1C(CN(C)C)c1nnc2n1-c1ccc(Cl)cc1C(c1ccccc1)=NC2 (centres undefined)")
2.69

Kindly note the recorded T/C 1 for COc1cccc(C2=NCc3nnc(C(CN(C)C)c4ccccc4)n3-c3ccc(Cl)cc32)c1 (centres undefined) , which is 1.34

All values here come from ChEMBL document CHEMBL1124476.
